target: cloned human dopamine D3 receptors (Homo sapiens, UniProt P35462); construct: expressed in transfected cells; membrane homogenate; experiment: [N-Methyl-3H]Spiroperidol binding to cloned human dopamine D3 receptors (Protocol 1); settings: the 16th table; read-out: D3 Ki
Sequence (P35462 whole entry): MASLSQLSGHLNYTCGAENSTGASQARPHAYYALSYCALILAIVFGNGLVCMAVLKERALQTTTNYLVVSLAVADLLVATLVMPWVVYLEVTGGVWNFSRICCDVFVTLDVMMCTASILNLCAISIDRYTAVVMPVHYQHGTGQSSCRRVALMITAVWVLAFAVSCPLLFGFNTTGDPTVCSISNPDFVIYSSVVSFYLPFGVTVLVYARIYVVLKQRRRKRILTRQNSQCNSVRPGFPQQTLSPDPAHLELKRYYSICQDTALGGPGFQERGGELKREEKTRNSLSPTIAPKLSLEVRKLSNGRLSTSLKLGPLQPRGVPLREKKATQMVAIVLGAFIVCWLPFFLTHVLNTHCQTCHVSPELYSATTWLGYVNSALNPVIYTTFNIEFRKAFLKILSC
Reported pKi values for a set of molecules
Would you please state pKi, meaning minus log10 of the concentration in mol/L, as a bare number?

Return reported pKi; argument: `CN(C)c1cccc(C(=O)NCCCCN2CCCN(c3csc4cc(F)ccc34)CC2)c1` 8.15

***
Return reported pKi; argument: `O=C(NCCCN1CCCN(c2csc3cc(F)ccc23)CC1)c1cccc(Cl)c1` 6.85

Return reported pKi; argument: `O=C(NCCCN1CCCN(c2csc3cc(F)ccc23)CC1)c1ccc2ccccc2c1` 6.88

Return reported pKi; argument: `Nc1ccc(C(=O)NCCCCN2CCCN(c3csc4cc(F)ccc34)CC2)cc1` 8.50

Return reported pKi; argument: `Nc1ccc(O)cc1C(=O)NCCCCN1CCCN(c2csc3cc(F)ccc23)CC1` 8.19

Return reported pKi; argument: `O=C(NCCCCN1CCCN(c2csc3cc(F)ccc23)CC1)c1cc2cccc(F)c2o1` 7.48

Return reported pKi; argument: `COc1cc(Br)cc2cc(C(=O)NCCCCN3CCCN(c4csc5cc(F)ccc45)CC3)oc12` 7.55

Return reported pKi; argument: `CCOc1cccc2cc(C(=O)NCCCCN3CCCN(c4csc5cc(F)ccc45)CC3)oc12` 7.90

Return reported pKi; argument: `Cc1ccc2cc(C(=O)NCCCCN3CCCN(c4csc5cc(F)ccc45)CC3)oc2c1` 7.81

Return reported pKi; argument: `CCNc1ccccc1C(=O)NCCCCN1CCCN(c2csc3cc(F)ccc23)CC1` 8.52

Return reported pKi; argument: `CC(C)(C)OC(=O)Cn1c(C(=O)NCCCCN2CCCN(c3csc4cc(F)ccc34)CC2)cc2ccccc21` 6.49

Return reported pKi; argument: `COc1ccc2cc(C(=O)NCCCCN3CCCN(c4csc5cc(F)ccc45)CC3)oc2c1` 8.22

Return reported pKi; argument: `COc1cc(OC)cc(C(=O)NCCCN2CCCN(c3csc4cc(F)ccc34)CC2)c1` 6.57

----------
Reported pKi values for a set of compounds
molecular target: cloned human dopamine D3 receptors (Homo sapiens); construct: expressed in transfected cells; membrane homogenate; assay: [N-Methyl-3H]Spiroperidol binding to cloned human dopamine D3 receptors (Protocol 1); details: Table 2; read-out: D3K1
Would you please state pKi, meaning minus log10 of the concentration in mol/L, as a bare number?

For the record `O=C(NCCCCN1CCCN(c2csc3cc(F)ccc23)CC1)c1c2ccccc2cc2ccccc12` , what value of pKi is listed for cloned human dopamine D3 receptors (Homo sapiens)? 7.24

For the record O=C(NCCC(CO)CN1CCN(c2csc3cc(C(F)(F)F)ccc23)CC1)c1ccc2[nH]ccc2c1 (stereo not shown) [818620ES] , what value of pKi is listed for cloned human dopamine D3 receptors (Homo sapiens)? 6.61

For the record COc1ccc(C(=O)NC(CO)CCCN2CCN(c3csc4cc(C(F)(F)F)ccc34)CC2)cc1OC (stereo not shown) , what value of pKi is listed for cloned human dopamine D3 receptors (Homo sapiens)? 6.65

***
For the record O=C(NCC(CO)CCN1CCN(c2csc3cc(C(F)(F)F)ccc23)CC1)c1ccoc1 (stereo not shown) [818925ES] , what value of pKi is listed for cloned human dopamine D3 receptors (Homo sapiens)? 6.53

This collection of values is drawn from patent US7550469B2.
